Values from PubChem BioAssay

# TARGET_UNDER_TEST: Alpha-bungarotoxin (Bungarus multicinctus) (UniProt P60615)
# Sequence (P60615 whole entry, looked up): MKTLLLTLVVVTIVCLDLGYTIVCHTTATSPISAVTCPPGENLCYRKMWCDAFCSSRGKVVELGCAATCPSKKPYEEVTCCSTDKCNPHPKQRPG
# EXPERIMENTAL_DETAILS: alpha-bungarotoxin binders on microarray, profiling panel, artefact control for SMM control protein annotation, biochemical, small-molecule microarray, Alexa647 label, 635/667 nm fluorescence (AID 1117)
# CONDITION_SUMMARY: alpha-BTX-A647 binding fluorescence, higher = more signal
composite z-score listing for selected compounds.
Lab note: jot down the number only; don't add units.

Recorded composite z-score, per entry:
- C[C@@H]1CC[C@@H](C(=O)O)N[C@H]1c1cccc(N2CCOCC2)c1: 0.851
- CO[C@@H]1C=CCC(=O)N[C@@H](C)C(=O)OC[C@@H](NS(=O)(=O)c2ccc(C)cc2)[C@H](C)C=CCC(=O)OC[C@H]1C: -0.135
- COC(=O)CC=C[C@@H](C)[C@@H](C=NOC(C)CN1CCCc2nc(C)c(C)cc21)NS(=O)(=O)c1ccc(C)cc1 (some centres undefined): -0.0193

--- query ---
Q: Supply composite z-score value. Item: O=C1C2=CC[C@H]3C(=O)N(C[C@@H]4CCCO4)C(=O)[C@H]3[C@H]2[C@H](O)[C@@H]2O[C@H]12
A: 0.395

====

# EXPERIMENTAL_DETAILS: basal RPMI8226 viability, no added stimulus, profiling panel, cell-based, calcein-AM fluorescence, 48 h, PK04 Diversity Set (AID 1166);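 further: cells grown under basal conditions without added stimulus; test concentration not given here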
# CONDITION_SUMMARY: RPMI8226 myeloma viability, higher = more signal
ASSAY_ENDPOINT: z-score
The response must contain the number and no unit.

Please review the following examples before continuing.
- CO[C@@H]1COC(=O)[C@H](CCSC)NC(=O)CC=C[C@@H](C)COC(=O)[C@@H]2CCCN2C(=O)CC=C[C@H]1C: 0.339
- CCN(CC)CC(O)CN1CCCCc2nc(C)c(C)cc21 (centres undefined): 0.378
- CCN1C(=O)[C@H]2[C@H]3[C@H](O)[C@H](O)CC(=NOC[C@@H](O)COCc4ccco4)[C@H]3CC[C@H]2C1=O: -0.229

Q: Specify measured z-score for COC(=O)CC=C[C@@H](C)[C@@H](C=NOC[C@@H](O)COCc1ccco1)OC .
A: 0.598

====

Here the recorded composite z-score is given for each entry.
# TARGET_UNDER_TEST: Fibroblast growth factor 10 (Homo sapiens)
# EXPERIMENTAL_DETAILS: FGF10 binders on small-molecule microarrays, primary screen, biochemical, small-molecule microarray, 635 nm fluorescence (AID 1102)
# CONDITION_SUMMARY: FGF10 binding, fluorescence 635 nm, higher = more signal
// keep it numeric: no unit symbol after the value

Reference set, count: 5
• CCOC(=O)[C@H](CC(C)C)NC(=O)CCC1CC(OC(=O)NCCc2ccc(F)cc2)CC2(CCCC(COC(=O)NCCCN3CCCC3=O)O2)O1 (stereo partly drawn) = 0.93
• O=C1C2=CC[C@H]3C(=O)N(c4ccc(F)cc4F)C(=O)[C@H]3[C@H]2[C@H](O)[C@@H]2O[C@H]12 = 0.472
• Cc1cc2c(nc1C)CCCCN2CC(O)CN1CCCc2nc(-c3ccc(Br)cc3)ccc21 (stereo not drawn) = 0.874
• CCOC(=O)[C@H](Cc1ccccc1)NC(=O)CCC1CC(OC(=O)NCc2cccc3ccccc23)CC2(CCCC(COC(=O)NCC3CCCCC3)O2)O1 (stereo partly drawn) = 0.781
• COc1cccc([C@H](O)Cn2cc(-c3ccc(CON=C(C)C)cc3)nn2)c1 = 0.155

Q: # return recorded composite z-score for input C#CCCCON=C1C[C@@H](O)[C@@H](O)[C@@H]2[C@@H]3C(=O)N(C[C@@H]4CCCO4)C(=O)[C@@H]3CC[C@H]12
A: 0.331

Q: Input CC(C)CON=C1C[C@@H](O)[C@@H](O)[C@@H]2[C@@H]3C(=O)N(Cc4ccccc4)C(=O)[C@@H]3CC[C@H]12 , output reported composite z-score.
A: 0.415

Q: Identify measured composite z-score associated with CCOC(=O)[C@H](CC(C)C)NC(=O)CCC1CC(OC(=O)NCc2ccc3c(c2)OCO3)CC2(CCCC(COC(=O)NCCOC)O2)O1 (stereo partly drawn)
A: 0.495

====

# EXPERIMENTAL_DETAILS: basal MM1S mitochondrial membrane potential changes, profiling panel, cell-based, JC-1 fluorescence, 24 h, 100 nL compound (AID 1170); further: test concentration not given here
# CONDITION_SUMMARY: higher = more signal
Kind request: treat -0.2 as inclusive, so z-score at -0.2 or higher is fulfilled, anything lower is not fulfilled.

Worked examples, 3 compounds total:
* O=C1CCCC=C1C(O)COCc1ccccc1 (stereo unspecified) | fulfilled
* OC[C@H]1O[C@H](C#Cc2ccccc2)C=C[C@@H]1O | not fulfilled
* CC(C)=CCCC(C)=CCON=C1C[C@@H](O)[C@@H](O)[C@@H]2[C@@H]3C(=O)N(c4cccc(Oc5ccccc5)c4)C(=O)[C@@H]3CC[C@H]12 | not fulfilled

Q: Check if z-score >= -0.2 (inclusive). Item: CC(=O)OC[C@H]1O[C@H](CC=NOC(C)CN2CCCCc3nc(C)c(C)cc32)C=C[C@@H]1OC(C)=O (stereo partly specified)
A: fulfilled

Q: In plain terms: is recorded z-score at least -0.2 for CC(=O)OC[C@H]1O[C@@H](ON=C(C)CCC(=O)OC[C@H]2O[C@H](C#Cc3ccccc3)C=C[C@@H]2Oc2ccc(C)cc2)[C@H](OC(C)=O)[C@@H](OC(C)=O)[C@@H]1OC(C)=O ?
A: fulfilled

Q: Evaluate COC(=O)[C@H](Cc1ccccc1)NC(=O)[C@@H](C)CO : z-score at minimum -0.2?
A: not fulfilled

Q: Could you verify whether the entry CCN1C(=O)[C@H]2[C@H]3[C@H](O)[C@H](O)CC(=NO[C@@H]4O[C@H](COC(C)=O)[C@@H](OC(C)=O)[C@H](OC(C)=O)[C@H]4OC(C)=O)[C@@H]3CC[C@H]2C1=O shows z-score of no less than -0.2?
A: not fulfilled

Q: Please tell me: is the compound CON=C(C)CCN1CCCCc2nc(C)c(C)cc21 at or over -0.2 in terms of z-score?
A: fulfilled

Q: Exam item: decide whether the reported z-score for CO[C@@H]1COC(=O)[C@H](CCSC)NC(=O)CC=C[C@@H](C)COC(=O)[C@@H]2CCCN2C(=O)CC=C[C@H]1C is at least -0.2.
A: fulfilled

Q: Check if z-score >= -0.2 (inclusive). Item: COc1ccc(-c2cnnc(CCCn3ccnc3-c3ccccc3)n2)cc1
A: not fulfilled

====

# EXPERIMENTAL_DETAILS: MM1S myeloma cell viability, profiling panel, resazurin fluorescence, basal, 24 h, PK04 Diversity Set (AID 1174);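 further: MM1S multiple myeloma cell line; test concentration not given here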
# CONDITION_SUMMARY: higher = more signal, called active from +8 up or from −8 down
ASSAY_ENDPOINT: z-score
Give only the figure.

Would you please look over these solved cases?
* CC(C)[C@@H](OCc1ccccc1)[C@H](C)C=NO[C@H](C)c1cn([C@@H]2COC[C@H]2O)nn1 | -0.648
* COC(=O)[C@H](C)NC(=O)CCC1CC(OC(=O)NCc2cccc3ccccc23)CC2(CCCC(COC(=O)NCCCN3CCCC3=O)O2)O1 (stereo partly drawn) | 0.478
* CC[C@@H](c1ccccc1)n1c(=O)n2n(c1=O)[C@H]1[C@H](O)[C@@H]3O[C@@H]3C(=NOCc3ccccc3)[C@H]1CC2 | -2.51
* CCCCOC(OCCCC)C(O)CSc1ccc2ccccc2c1 (stereo not drawn) | -1.99
* CC(=O)OC[C@H]1O[C@H](CC=NO[C@@H](C)c2cc(-c3c(C)cc(C)cc3C)no2)C=C[C@@H]1OC(C)=O | -0.523

Q: Give the value of z-score reported for the following: Cc1cc(C)c(-c2cc([C@H](C)ON=C[C@@H](C)[C@H](OCc3ccccc3)C(C)C)on2)c(C)c1
A: -0.258

Q: Indicate its recorded z-score; the compound in question is CON=C(C)CCN1CCCc2nc(C)c(C)cc21
A: -0.136

Q: Answer with reported z-score of C#CCCCON=C1C[C@@H](O)[C@@H](O)[C@@H]2[C@@H]3C(=O)N([C@@H](C)c4ccccc4)C(=O)[C@@H]3CC[C@@H]12
A: -0.521

====

# EXPERIMENTAL_DETAILS: small-molecule binders of probe aNOTCH3, primary screen, biochemical, small-molecule microarray, 635/667 nm fluorescence (AID 1120);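 further: probe is a biotin-tagged antibody raised against NOTCH3 rather than NOTCH3 protein; score merges spot fluorescence near 667 nm with spot signal to noise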
# CONDITION_SUMMARY: higher = more signal
Reported composite z-score values are given for each entry in this list.
The reply should be a number, written without any unit.

- O=C1[C@H]2CCn3c(=O)n(Cc4cc5c(cc4Cl)OCO5)c(=O)n3[C@H]2[C@H](O)[C@@H]2O[C@H]12: -0.15
- COC(=O)CC=C[C@@H](C)[C@@H](C=NOC[C@@H](O)COCc1ccco1)OC: -0.262
- CCOC(=O)[C@H](Cc1ccccc1)NC(=O)CCC1CC(OC(=O)NCCc2ccc(F)cc2)CC2(CCCC(COC(=O)NCCOc3ccccc3)O2)O1 (some centres undefined): 0.0833

Could you now consider this next compound?
Q: Report measured composite z-score; entry is CO[C@H]1COC(=O)[C@H](C)COC(=O)[C@@H](OCc2ccccc2)C=C[C@@H]1C
A: -0.141
